Recorded values, source the supplement of paper PMC11451515.

Catalogue of compounds with associated AUC of viability dose-response curve
System: P12-Ichikawa
assay-notes: AUC of viability dose-response curve (% viability x log10 dose units); higher = less sensitive
condition-set: RPMI 5 mM glucose + 10% FBS; 48 h
The reply should be a number, written without any unit.

# count of solved cases: 4
>  <compound>
OC[C@H]1O[C@H]([C@@H](F)[C@@H]1O)N2\C=C/C(=O)NC2=O

>  <AUC of viability dose-response curve>
475

$$$$
>  <compound>
C[C@H]1C[C@H]2[C@@H]3CCC4=CC(=O)C=C[C@]4(C)[C@@]3(F)[C@@H](O)C[C@]2(C)[C@@]1(O)C(=O)CO

>  <AUC of viability dose-response curve>
322

$$$$
>  <compound>
CN(C)CCc1c[nH]c2ccc(C[C@H]3COC(=O)N3)cc12

>  <AUC of viability dose-response curve>
409

$$$$
>  <compound>
N[S+](=O)([O-])c1cc(Cl)c(Cl)c([S+](N)(=O)[O-])c1

>  <AUC of viability dose-response curve>
460

$$$$

Here is another compound to look at.
Value of AUC of viability dose-response curve reported for the compound Cc1nccn1CC1CCc2c(c3ccccc3n2C)C1=O (stereo not given) is 422
